# System: 556581-035-R-J1-PDC complex spheroid growth;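 also: spheroids exposed to agents for 7 days before viability read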
# protocol-description: Anticancer human tumor 556581-035-R-J1-PDC patient-derived ovarian carcinoma cell line growth inhibition [Asc]
# condition-info: second compound 1 µM; first compound 0.316 µM; stronger effect = lower value
Reported viability, T/C values for the following molecules.
Give a bare numeral; the unit % is implied.

Reported viability, T/C of CCN1CCN(Cc2ccc(Nc3ncc(F)c(-c4cc(F)c5nc(C)n(C(C)C)c5c4)n3)nc2)CC1 + CNC(C)C(=O)NC1CN(S(=O)(=O)c2cccc(S(=O)(=O)N3CCC4CCC(C(=O)NC(c5ccccc5)c5ccccc5)N4C(=O)C(NC(=O)C(C)NC)C3)c2)CCC2CCC(C(=O)NC(c3ccccc3)c3ccccc3)N2C1=O : 51.7

Reported viability, T/C of C=CC(=O)N1CCN(c2nc(=O)n(-c3c(C)ccnc3C(C)C)c3nc(-c4c(O)cccc4F)c(F)cc23)C(C)C1 (configuration not stated) + Cc1c(S(C)(=O)=O)c(-c2cc(F)cc(N3CCN(c4ccc(NS(=O)(=O)c5ccc(NC(CCN6CCC(C(=O)OCCCP(=O)(O)O)CC6)CSc6ccccc6)c(S(=O)(=O)C(F)(F)F)c5)cc4)CC3)c2)c(-c2ccc(Cl)cc2)n1C(C)C : 77.6

Values compiled from PubChem BioAssay AID1963450.
